Listed here: items and their measured MHC.
System: human erythrocytes
Experiment: Minimum hemolytic concentration (MHC)
Type: cell-based
Conditions: 1% human erythrocytes in PBS, 37°C, 1 h, OD562; highest concentration with no detectable hemoglobin release (<1% of 0.1% Triton X-100)
No end group written: not given here.

- substance: "KWKSFIKKSTSKFLHSAKKF-NH2 [Peptide S9]"
  quantity: "MHC"
  result: ">500 µg/mL"
- substance: "KWKSFIKKLTSKFLHSKKKF-NH2 [Peptide K17]"
  quantity: "MHC"
  result: ">500 µg/mL"
- substance: "KWKSFIKKLASKFLHSAKKF-NH2 [Peptide A10, S16 derivative by single amino acid substitution]"
  quantity: "MHC"
  result: "250 µg/mL"

get_value(item= KWKSFIKKLTSKFLHSADKF-NH2 [Peptide D18] , readout=MHC) returns >500 µg/mL

get_value(item= KWKSFIKKLTDKFLHSAKKF-NH2 [Peptide D11] , readout=MHC) returns >500 µg/mL

get_value(item= KWKSFIKKLTSKFLHSANKF-NH2 [Peptide N18, S16 derivative by single amino acid substitution] , readout=MHC) returns >500 µg/mL

get_value(item= KWKSFIKKLLSKFLHSAKKF-NH2 [Peptide L10] , readout=MHC) returns <125 µg/mL

get_value(item= KFKSFIKKLTSKFLHSAKKF-NH2 [Peptide F2] , readout=MHC) returns 250 µg/mL

get_value(item= KWKSFIKKLTSKFLHSAKKN-NH2 [Peptide N20] , readout=MHC) returns >500 µg/mL
